test system: Mus musculus; test: Antineoplastic activity of compound in mice inoculated with 10e 5 L1210 leukemia cells was measured as T/C after ip administration of 100 […]; format: functional
We begin with a simple list: items and their reported T/C.
Report the figure in % without appending any unit label.

Please review the entries below; each comes with its answer.
Req: Can you share its T/C? I mean this compound: Nc1nc(S)c2ncn(C3CC(O)C(CO)C3)c2n1 (stereo not given)
Resp: 91

Req: Can you share its T/C? I mean this compound: Nc1nc(Cl)c2ncn(C3CC(O)C(CO)C3)c2n1 (stereo not given)
Resp: 106

Req: Can you share its T/C? I mean this compound: Nc1nc(Cl)c2nnn(C3CC(O)C(CO)C3)c2n1 (stereo not given)
Resp: 100

Req: Can you share its T/C? I mean this compound: Nc1nc(O)c2ncn([C@@H]3C[C@H](CO)[C@@H](O)C3)c2n1
Resp: 96

# next compound below
Req: Can you share its T/C? I mean this compound: Nc1nc(O)c2nnn(C3CC(O)C(CO)C3)c2n1 (stereo not given)
Resp: 100
